PROTOCOL DETAILS: Phase I dose-escalating study, plasma pharmacokinetics in patients with solid tumor
Type: in vivo, human
CONDITION LABEL: human, plasma, 200 mg, 200 mg QD (4/1), C1D1 (n = 6), plasma; read-out: C(trough, 24 h), mean (% CV)
ASSAY READOUT: concentration at 24 h (ng/mL)
Dear colleague, please return just the value in ng/mL, with no unit written.

Task: Recorded concentration at 24 h for Cc1[nH]c(/C=C2\C(=O)Nc3ccc(F)cc32)c(C)c1C(=O)NC[C@H](O)CN1CCOCC1 , please?
Result: 147

---

PROTOCOL DETAILS: Phase I dose-escalating study, plasma pharmacokinetics in patients with solid tumor
Assay type: in vivo, human
CONDITION LABEL: human, plasma, 50 mg, 50 mg QD (4/1), C1D1 (n = 6), plasma; read-out: AUC(0-24), mean (% CV)
ASSAY READOUT: AUC(0-t) (ng·h/mL)
Dear colleague, please return just the value in ng·h/mL, with no unit written.

Task: Recorded AUC(0-t) for Cc1[nH]c(/C=C2\C(=O)Nc3ccc(F)cc32)c(C)c1C(=O)NC[C@H](O)CN1CCOCC1 [compound 1] , please?
Result: 888
